Test system: SARS-CoV-2 (D614) PsV
Test: microbe, parasite or virus in culture
Type: cell-based
Conditions: Severe acute respiratory syndrome coronavirus 2, 48 h, read-out: IC50, inhibition of SARS-CoV-2 (D614) PsV infection
Structures can show the parent of a compound that is named as a salt.
Listed here are compounds together with their documented IC50.
State the answer as a number, implicitly in µM.

Recorded IC50, per entry:
{"columns": ["Compound", "Study System", "Number"],
 "data": [
  ["OCCN1CCN(CCCN2c3ccccc3Sc3ccc(Cl)cc32)CC1 [Perphenazine, perphenazine]", "SARS-CoV-2 (D614) PsV", 0.831],
  ["CC(CN(C)C)CN1c2ccccc2Sc2ccccc21 (stereo not shown) [Alimemazine hemitartrate, alimemazine hemitartrate]", "SARS-CoV-2 (D614) PsV", 0.477],
  ["CCCCCCCCCC(=O)OCCN1CCN(CCCN2c3ccccc3Sc3ccc(C(F)(F)F)cc32)CC1 [Fluphenazine decanoate, fluphenazine decanoate]", "SARS-CoV-2 (D614) PsV", 3.9]
]}

API: the following record is the query input.
Query: Record request: IC50 value, item CC(=O)c1ccc2c(c1)N(CCCN(C)C)c1ccccc1S2 [Acepromazine maleate, acepromazine maleate]
Reply: 1.82

* * *

Listed here are molecules together with their documented IC50.
Tested on: MERS-CoV PsV
Test: microbe, parasite or virus in culture
Type: cell-based
Conditions: Middle East respiratory syndrome-related coronavirus, 48 h, read-out: IC50, inhibition of MERS-CoV PsV infection
Structures can show the parent of a compound that is named as a salt.
State the answer as a number, implicitly in nM.

Recorded IC50, per entry:
{"columns": ["Molecule", "IC50, nM"],
 "data": [
  ["CC(CN(C)C)CN1c2ccccc2Sc2ccccc21 (stereo not shown) [Alimemazine hemitartrate, alimemazine hemitartrate]", 1220],
  ["CC(=O)c1ccc2c(c1)N(CCCN(C)C)c1ccccc1S2 [Acepromazine maleate, acepromazine maleate]", 1580]
]}

Query: Record request: IC50 value, item CCCCCCCCCC(=O)OCCN1CCN(CCCN2c3ccccc3Sc3ccc(C(F)(F)F)cc32)CC1 [Fluphenazine decanoate, fluphenazine decanoate]
Reply: 2640

Query: Follow-up item: OCCN1CCN(CCCN2c3ccccc3Sc3ccc(Cl)cc32)CC1
Reply: 1280

* * *

Test: Cytotoxicity assay (CCK-8)
Conditions: human, HEK293T-hACE2 cells
Counter-ions that a name gives are not always drawn.
Mark each entry Y if its CC50 at 48 h sits below 90 µM, and N for all others.

{"columns": ["Compound", "Classification"],
 "data": [
  ["CCCCCCCCCC(=O)OCCN1CCN(CCCN2c3ccccc3Sc3ccc(C(F)(F)F)cc32)CC1 [Fluphenazine decanoate, fluphenazine decanoate]", "Y"],
  ["CN1CCN(CCCN2c3ccccc3Sc3ccc(Cl)cc32)CC1 [Prochlorperazine maleate, prochlorperazine maleate]", "Y"],
  ["CC(=O)c1ccc2c(c1)N(CCCN(C)C)c1ccccc1S2 [Acepromazine maleate, acepromazine maleate]", "N"],
  ["CC(CN(C)C)CN1c2ccccc2Sc2ccccc21 (centres unmarked) [Alimemazine hemitartrate, alimemazine hemitartrate]", "Y"]
]}

Query: Item OCCN1CCN(CCCN2c3ccccc3Sc3ccc(Cl)cc32)CC1 : CC50 at 48 h beneath 90 µM, strictly?
Reply: Y

Data origin: paper PMC10458444
